testedSystem: SARS-CoV spike protein (full-length trimeric, on beads) (SARS-CoV, UniProt P59594 14-1190)
outcomeMeasure: bead binding signal, fold over isotype control (fold over isotype)

antibody 487 (antibody, V domains shown) VH: QVQLQESGPGLVKPSQTLSLTCTVSGGSISSGGYYWSWIRQHPGKGLEWIGYIYYSGSTYYNPSLKSRVTISVDTSKNQFSLKLSSVTAADTAVYYCARGPLDFWSGYFRLRYFDCWGQGTLVTVSS VL: QSALTQPASVSGSPGQSITISCTGTSSDVGGYNYVSWYQQHPGKAPKLMIYDVTNRPSGVSNRFSGSKSGNTASLTISGLQAEDEADYYCSSYTSSSTCVFGTGTKVTVL
7.25
antibody 543 (antibody, V domains shown) VH: EVQLVESGGGLVQPGRSLRLSCAASGFTFHDYAMHWVRQAPGKGLEWVSGISWNSGSIGYADSVKGRFTISRDNAKNSLYLQMNSLRAEDTALYYCAKDTFGSSSWYRGDSYYYYGMDVWGQGTTVTVSS VL: QSALTQPASVSGSPGQSITISCTGTSSDVGGYNYVSWYQQHPGKAPKLMIYEVSNRPSGVSNRFSGSKSGNTASLTISGLQAEDEADYYCSSYTSSSTQRYVVFGGGTKLTVL
1.03
antibody 507 (antibody, V domains shown) VH: QVQLQESGPGLVKPSGTLSLTCAVSGGSISSSNWWSWVRQPPGKGLEWIGEIYHSGNTNYNPSLKSRVTISVDKSKNQFSLKLSSVTAADTAVYYCARREWLRLFDYWGQGTLVTVSS VL: QSALTQPASVSGSPGQSITISCTGTSSDVGSYNLVSWYQQHPGKAPKLMIYEVSKRPSGVSNRFSGSKSGNTASLTISGLQAEDEADYYCCSYAGSSTYVFGTGTKVTVL
1.07
antibody 522 (antibody, V domains shown) VH: EVQLVESGGGLVQPGGSLRLSCAASGFNFSSYSMNWVRQAPGKGLEWVSYISSSSSTIYYADSVKGRFTISRDNAKNSLYLQMNSLRDEDTAVYYCARGPEWDIVVVQAENWFDPWGQGTLVTVSS VL: SYELTQPPSVSVSPGQTARITCSGDALPKQYVYWYQQKPGQAPVLVIYKDSERPSGIPERFSGSSSGTTVTLTISGVQAEDEADYYCQSADSSGTYRGVFGGGTKLTVL
1.21
antibody 514 (antibody, V domains shown) VH: EVQLVQSGAEVKKPGATVKISCKVSGYTFTDYYMHWVQQAPGKGLEWMGLVDPEDGETIYAEKFQGRVTITADTSTDTAYMELSSLRSEDTAVYYCATDCKYDILTGHYSAGYYYYGMDVWGQGTTVTVSS VL: DIQMTQSPSSLSASVGDRVTITCRASQGISNYLAWFQQKPGKAPKSLIYAASSLQSGVPSKFSGSGSGTDFTLTISSLQPEDFATYYCQQYNSYPFTFGGGTKVEIK
1.15
antibody 510 (antibody, V domains shown) VH: QVQLQESGPGLVKPSQTLSLTCTVSGGSISSGSYYWSWIRQPAGKGLEWIGRIYTSGSTNYNPSLKSRVTISVDTSKNQFSLKLSSVTAADTAVYYCAREGQWLYRFDYWGQGTLVTVSS VL: QSALTQPASVSGSPGQSITISCTGTSSDVGNYDLVSWYQQHPGKAPKLVIYGVTKRPSGVSNRFSGSKSGNTASLTISGLQAEDEADYYCCSYATGDTSVFGTGTKVTVL
1.03
